Tested on: KRAS patient-derived spheroids with HUVEC/MSC, viability
PROTOCOL TEXT: Anticancer human tumor 941728-121-R-J1-PDC patient-derived lung adenocarcinoma cell line growth inhibition [KRAS2]
PROTOCOL CONDITIONS: second compound 0.1 µM; first compound 0.1 µM; hits give low values
Label yes when viability, T/C is strictly below 40%; otherwise label no.

Solved entries:
molecule="CC1OCC2(CCN(c3cnc(Sc4ccnc(N)c4Cl)c(N)n3)CC2)C1N (stereo not given) + COc1cc2nc(C)nc(NC(C)c3cc(N)cc(C(F)(F)F)c3)c2cc1OC1CCOC1" class=no
molecule="CC(C)NCC(C(=O)N1CCN(c2ncnc3c2C(C)CC3O)CC1)c1ccc(Cl)cc1 (stereo not given) + COc1cc2nc(C)nc(NC(C)c3cc(N)cc(C(F)(F)F)c3)c2cc1OC1CCOC1" class=no
molecule="COC(=O)c1ccc2c(C(=Nc3ccc(N(C)C(=O)CN4CCN(C)CC4)cc3)c3ccccc3)c(O)[nH]c2c1 + CC1OCC2(CCN(c3cnc(Sc4ccnc(N)c4Cl)c(N)n3)CC2)C1N" class=yes
molecule="CC(=O)OC12COC1CC(O)C1(C)C(=O)C(O)C3=C(C)C(OC(=O)C(O)C(NC(=O)OC(C)(C)C)c4ccccc4)CC(O)(C(OC(=O)c4ccccc4)C21)C3(C)C (stereo not given) + CNCc1ccccc1-c1csc(C(C)Nc2nc(C)nc3cc(OC)c(OC)cc23)c1" class=yes

Hi there! Is viability, T/C for Cn1nccc1Nc1nccc(-c2cc3c(s2)C(C)(C)N(CCN2CCOCC2)C3=O)n1 + CC1OCC2(CCN(c3cnc(Sc4ccnc(N)c4Cl)c(N)n3)CC2)C1N below 40%, do you know?
no

====

System: KRAS patient-derived spheroids with HUVEC/MSC, viability
PROTOCOL TEXT: Anticancer human tumor 941728-121-R-J1-PDC cell line growth inhibition [KRAS2]; active means viability on the fitted dose curve at most 10% of control; inactive means the rest;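 also: spheroids exposed to agents for seven days before readout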
PROTOCOL CONDITIONS: second compound 10 µM; first compound 0.01 µM
Outcome field: choose from active, inactive

Solved entries:
compound="CC(C)n1nc(-c2ccc3oc(N)nc3c2)c2c(N)ncnc21 + CNCc1ccccc1-c1csc(C(C)Nc2nc(C)nc3cc(OC)c(OC)cc23)c1" class=active
compound="CC(=O)Nc1cccc(-n2c(=O)n(C3CC3)c(=O)c3c(Nc4ccc(I)cc4F)n(C)c(=O)c(C)c32)c1 + C=CC(=O)N1CCN(c2nc(=O)n(-c3c(C)ccnc3C(C)C)c3nc(-c4c(O)cccc4F)c(F)cc23)C(C)C1" class=inactive
compound="CN(C)C/C=C/C(=O)Nc1cc2c(Nc3ccc(F)c(Cl)c3)ncnc2cc1O[C@H]1CCOC1 + COc1cc2nc(C)nc(NC(C)c3cc(N)cc(C(F)(F)F)c3)c2cc1OC1CCOC1" class=inactive

Now for another entry.
Recorded test outcome, item CC(C)n1nc(-c2ccc3oc(N)nc3c2)c2c(N)ncnc21 + C=CC(=O)N1CCN(c2nc(=O)n(-c3c(C)ccnc3C(C)C)c3nc(-c4c(O)cccc4F)c(F)cc23)C(C)C1
inactive

====

Test system: KRAS patient-derived spheroids with HUVEC/MSC, viability
PROTOCOL TEXT: Anticancer human tumor 941728-121-R-J1-PDC cell line growth inhibition [KRAS2];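 also: spheroids exposed to agents for seven days before readout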
PROTOCOL CONDITIONS: second compound 10 µM; first compound 1 µM; hits give low values
I'd appreciate it if you could supply viability, T/C values for the items below.

// for each molecule in input: emit viability, T/C
1. Cn1nccc1Nc1nccc(-c2cc3c(s2)C(C)(C)N(CCN2CCOCC2)C3=O)n1 + CNCc1ccccc1-c1csc(C(C)Nc2nc(C)nc3cc(OC)c(OC)cc23)c1
2. CCNC(=O)CC1N=C(c2ccc(Cl)cc2)c2cc(OC)ccc2-n2c(C)nnc21 (stereo not given) + C=CC(=O)N1CCN(c2nc(=O)n(-c3c(C)ccnc3C(C)C)c3nc(-c4c(O)cccc4F)c(F)cc23)C(C)C1
3. CC1OCC2(CCN(c3cnc(Sc4ccnc(N)c4Cl)c(N)n3)CC2)C1N (stereo not given) + CNCc1ccccc1-c1csc(C(C)Nc2nc(C)nc3cc(OC)c(OC)cc23)c1
4. O=C(c1cc(Cc2n[nH]c(=O)c3ccccc23)ccc1F)N1CCN(C(=O)C2CC2)CC1 + COc1cc2nc(C)nc(NC(C)c3cc(N)cc(C(F)(F)F)c3)c2cc1OC1CCOC1
5. CC1COCCN1c1cc(-c2ccnn2C)c2ccnc(-c3ccn[nH]3)c2n1 (stereo not given) + COc1cc2nc(C)nc(NC(C)c3cc(N)cc(C(F)(F)F)c3)c2cc1OC1CCOC1
6. CCN1CCN(Cc2ccc(Nc3ncc(F)c(-c4cc(F)c5nc(C)n(C(C)C)c5c4)n3)nc2)CC1 + CC1OCC2(CCN(c3cnc(Sc4ccnc(N)c4Cl)c(N)n3)CC2)C1N
7. Cn1nccc1Nc1nccc(-c2cc3c(s2)C(C)(C)N(CCN2CCOCC2)C3=O)n1 + COc1cc2nc(C)nc(NC(C)c3cc(N)cc(C(F)(F)F)c3)c2cc1OC1CCOC1
8. CC(=O)OC12COC1CC(O)C1(C)C(=O)C(O)C3=C(C)C(OC(=O)C(O)C(NC(=O)OC(C)(C)C)c4ccccc4)CC(O)(C(OC(=O)c4ccccc4)C21)C3(C)C (stereo not given) + CNCc1ccccc1-c1csc(C(C)Nc2nc(C)nc3cc(OC)c(OC)cc23)c1

["0.77%", "15.1%", "0.22%", "33.6%", "9.32%", "9.79%", "20.4%", "28.4%"]
